Measured values drawn from PubChem BioAssay (NCI) for this set.

# Tested on: OVCAR-8 ovarian
# ASSAY_OVERVIEW: NCI tumour cell line growth inhibition, 48 h
Would you mind telling me the reported TGI of each entry?

# TGI (compound: CCOP(=O)(OCC)C(F)(F)Cc1cnc(C)c2c1COC(C)(C)O2 ) is > 10 µM

Record summary for Cc1nn(C)c2cc(N(C)c3ccnc(Nc4cccc(S(N)(=O)=O)c4)n3)ccc12 : reported TGI = > 25 µM

Sure, the documented TGI for COc1cc2c(cc1OCCCN1CCN(c3ncnc4ccccc34)CC1)N=CC1CCCN1C2=O (stereo unspecified) is > 53.6 µM

Form: compound = CCCCCCCCCCCCC(CCCCCCCCCCCC)OP(=O)(O)O ; TGI = > 100 µM

For Fc1ccc2c3c([nH]c2c1)CCNC3 the compound record lists TGI as > 100 µM

TGI reading for COc1ccc(C2=NN(C(=O)c3cccnc3)C(O)(c3cc(F)c(Cl)cc3Cl)C2)cc1OC (stereo unspecified) : 35.7 µM

Value of measured TGI for the entry CCOC(=O)c1cc(Br)c(-c2onc(C)c2Br)n1C : > 100 µM

Notebook: C[CH2][Sn]([CH2]C)([O]C(=O)c1ccc(F)cc1)[O][Sn]([CH2]C)([CH2]C)[O]C(=O)c1ccc(F)cc1 , TGI read as > 100 µM

get_value(item= CNC(=O)Nc1ccccc1 , readout=TGI) returns > 100 µM

response.value for Cc1nc2sc(C(=O)Nc3cccc(Br)c3)c(N)c2cc1C(O)c1ccccc1 (stereo unspecified) (field: TGI) = 55.1 µM

// field: TGI; key: CCOC(=O)c1cc(C#N)[nH]c1-c1ccsc1 ; value = > 100 µM

* * *

Exercise: state measured TGI for each of the compounds provided.
# System: SF-268 CNS
# ASSAY_OVERVIEW: NCI tumour cell line growth inhibition, 48 h

Sample N#Cc1nn(-c2cc(=O)[nH]c3ccc(Br)cc23)c(N)c1C#N ; TGI observed: > 100 µM

TGI reading for C=C(CN(C)C)C(=O)c1ccc(Oc2ccccc2)cc1 : 32.5 µM

Measured TGI of O=C(Nc1ccc(Cl)cc1)NS(=O)(=O)c1c(-c2ccccc2)oc2ccccc2c1=O : > 100 µM

// recorded TGI for CSC1(CC(=O)N2CCCCC2)C(=O)Nc2ccccc21 (stereo not given) : > 100 µM

Just so you know, measured TGI for Cc1ccc(S(=O)(=O)Nn2c(O)c(C#N)c(-c3ccc(N(C)C)cc3)c(C#N)c2=O)cc1 came out at > 50 µM

For O=c1/c(=C/c2ccc([N+](=O)[O-])o2)sc2n1[C@@H](c1ccc3c(c1)OCO3)C=C(c1cc(F)c(Cl)cc1Cl)N=2 the compound record lists TGI as > 100 µM

Item: O=C(Cc1ccccc1)NS(=O)(=O)c1ccccc1 | TGI: > 100 µM

// TGI lookup, compound = NC(=O)OCc1c(-c2ccccc2)nn(-c2ccccc2)c1COC(N)=O , result: > 100 µM

Lookup result for COc1ccc(C(c2ccc3c(c2)OCO3)N2C(=O)CCC2C(=O)O)cc1 (stereo not given) ; measured TGI: > 100 µM

So, CN1N=C2c3ccccc3CC[C@H]2C1c1cccc(O)c1 (stereo not given in full) ? Its TGI was > 100 µM

* * *

# Test system: LOX IMVI melanoma
# ASSAY_OVERVIEW: NCI tumour cell line growth inhibition, 48 h; in the data active means GI50 below about 0.43 µM; inactive means the rest
I would appreciate it if you answered using one of these outcomes: y = active, n = inactive

-- ask // return assay outcome for C=CCSSc1ncnc2c1ncn2C1OC(CO)C(O)C1O (configuration not stated)
-- reply y

-- ask Write down the call the test reported for this molecule. Item: COc1ccc(C2CC(=O)c3c(O)c(OC)c(OC)c(OC)c3O2)cc1O (configuration not stated)
-- reply y

-- ask // outcome(item) with item = Fc1cccc(-c2[nH]nc3nc(Nc4cccnc4)sc23)c1
-- reply n

-- ask Fill in: this test's call for Cc1nc2sc(C(=O)Nc3cccc(Br)c3)c(N)c2cc1C(O)c1ccccc1 (configuration not stated) is ___
-- reply n

-- ask Give the logged outcome of this assay for the following molecule: O=[N+]([O-])c1cc2c(c([N+](=O)[O-])c1)Nc1ccccc1O2
-- reply n

-- ask Can you look up the reported call for CC(C)(C)c1cc(-c2nc3c(F)c(F)c(F)c(F)c3[nH]2)cc(C(C)(C)C)c1O for me?
-- reply n

-- ask How was Clc1ccc2c(NCCNc3nc(N4CCCC4)nc4ccccc34)ccnc2c1 classified in this test?
-- reply n

-- ask Would you mind telling me which call this test gave CC[CH2][Sn]([CH2]CC)([O]C(=O)Cc1ccc(F)cc1)[O][Sn]([CH2]CC)([CH2]CC)[O]C(=O)Cc1ccc(F)cc1 ?
-- reply y

-- ask Identify the outcome logged in this assay for the molecule shown: Nc1ccccc1C#Cc1ccccc1C#Cc1cnccn1
-- reply n

-- ask Recorded test outcome, item CCN(CC)CC[n+]1cc2cc(OC)c(OC)cc2c2ccc3cc4c(cc3c21)OCO4
-- reply y

-- ask For O=S(=O)(Nc1ccccn1)c1ccc(N=Nc2ccc(O)c3ncccc23)cc1 , which call appears in the assay record?
-- reply n

-- ask How did this test come out for COC1=C(OC)[C@]2(OC)c3c(O)c(OC)c4c(c3O[C@@]23O[C@@H](c2ccccc2)CC=C3C1=O)[C@@H](O)C[C@H](c1ccccc1)O4 ?
-- reply y

* * *

# System: SNB-19 CNS
# ASSAY_OVERVIEW: NCI tumour cell line growth inhibition, 48 h
MEASUREMENT_LABEL: TGI

According to the records, this compound C[C@]12CCC(=O)C=C1CC[C@@H]1[C@@H]2[C@@H](O)C[C@@]2(C)[C@H]1CC[C@]2(O)C(=O)COC(=O)C1CCCC1 displays TGI of > 100 µM

Entry COc1ccc(C(c2cc3c(cc2O)OCO3)N2CCOCC2)cc1OC (centres undefined) , TGI reported as 30.4 µM

TGI reading for CN1N=C2c3ccccc3CC[C@H]2C1c1cccc(O)c1 (some centres undefined) : > 100 µM

TGI for Nc1ncnc2c1ncn2C1CC(OC2CCCCO2)C(CO)O1 (centres undefined) is > 100 µM

Consider O=C1OC(CS(=O)(=O)c2ccccc2)CC1O (centres undefined) . Its measured TGI is > 100 µM

The compound CN(C)Cc1cc(/C=C/C(=O)c2ccc(Cl)c(Cl)c2)cc(CN(C)C)c1O showed TGI equal to 32.5 µM

Item: COc1ccc(C2=NN(C(=O)c3cccnc3)C(O)(c3cc(F)c(Cl)cc3Cl)C2)cc1OC (centres undefined) | TGI: > 100 µM

Cc1ccc(C2=NN(c3ccc(S(N)(=O)=O)cc3)C(c3cn(-c4ccccc4)nc3-c3ccccc3)C2)cc1 (centres undefined) has a reported TGI of > 100 µM

Lookup result for N#C[S-].[Ce+3].c1cnc2c(c1)ccc1cccnc12.c1cnc2c(c1)ccc1cccnc12.c1cnc2c(c1)ccc1cccnc12 ; measured TGI: 22.5 µM

* * *

# System: SF-268 CNS
# ASSAY_OVERVIEW: NCI tumour cell line growth inhibition, 48 h; in the data active means GI50 below about 0.43 µM; inactive means the rest
Result category, one only: active, inactive

-- ask For COC1=C(OC)[C@]2(OC)c3c(O)c(OC)c4c(c3O[C@@]23O[C@@H](c2ccccc2)CC=C3C1=O)[C@@H](O)C[C@H](c1ccccc1)O4 , what call appears in the results of this test?
-- reply active

-- ask For this molecule, state the assay outcome: CCN1CCN(c2ccc(Nc3ncc4ccc5ncn(C(C)C)c5c4n3)nc2)CC1
-- reply active

-- ask Answer briefly: the call reported for Nc1ccccc1C#Cc1ccccc1C#Cc1cnccn1 in this assay.
-- reply inactive

-- ask Field: outcome | Entry: Cc1nn(C)c2cc(N(C)c3ccnc(Nc4cccc(S(N)(=O)=O)c4)n3)ccc12
-- reply inactive

-- ask For this molecule, state the assay outcome: Cc1ccc(NC(=O)c2cc3ccccc3cc2O)c(C)c1.Cc1ccc(NC(=O)c2cc3ccccc3cc2[O-])c(C)c1.[Ni+2]
-- reply inactive

-- ask Assay result, entry COc1cc(N2CCC(N3CCN(C)CC3)CC2)ccc1Nc1ncc(Cl)c(Nc2ccccc2S(=O)(=O)C(C)C)n1 — outcome?
-- reply inactive

-- ask What classification did Cc1ccc(C2=NN(c3ccc(S(N)(=O)=O)cc3)C(c3cn(-c4ccccc4)nc3-c3ccccc3)C2)cc1 (centres undefined) end up with in this test?
-- reply inactive

-- ask Could you check what this test reported for COc1ccc2nc3ccccc3c(NCc3ccc(C)cc3)c2c1 ?
-- reply inactive

-- ask Fill in: this test's call for C[C@@H]1OCC2(CCN(c3cnc(Sc4ccnc(N)c4Cl)c(N)n3)CC2)[C@@H]1N is ___
-- reply inactive

* * *

Please go through the items and note down their TGI.
# Tested on: NCI-H522 lung
# ASSAY_OVERVIEW: NCI tumour cell line growth inhibition, 48 h
Numbers only; they are read as µM.

Simply: O=S(=O)(Nc1ccccn1)c1ccc(N=Nc2ccc(O)c3ncccc23)cc1 , NCI-H522 lung, TGI = 2.14

Record for COc1ccc(C(SCC(N)C(=O)O)(c2ccc(OC)cc2)c2ccc(OC)cc2)cc1 (stereo unspecified) under target or system NCI-H522 lung: TGI reported as 39.8

Item CCN(CC)C(=S)SS(=O)(=O)c1ccc(NC(C)=O)cc1 was tested on NCI-H522 lung; the reported TGI is 0.84
